protocol: Cytotoxicity against mouse B16 cells assessed as cell viability at 25 uM after 24 hrs by MTT assay
Type: cell-based
condition: read-out: Activity
observable: viability at 24 h, 25 µM (%)
Write it as a number; the unit % goes unstated.

Task item: Any idea what its viability at 24 h, 25 µM is? The compound is `Oc1ccc2cc(-c3cc(O)c(O)c(O)c3)ccc2c1`
Reply: 98.3
